assay: BET inhibitor-based combinations targeting novel dependencies in MECOM-rearranged (r) AML: HNT-34 cell line (AID 2202234); conditions: HNT-34 AML viability, CellTiter-Glo luminescence, 48 h; series mostly up to 46 µM; note: nearly all actives have a fitted effect of over 35% in size
Records with an inconclusive call do not appear. The source made the active and inactive calls. Calls come from the whole dose curve; as a rule, active = well fitted inhibition curve with a large enough effect; inconclusive = small, poorly fitted or top-dose-only effect; inactive = no such curve, though single readings can be large or run the other way.
# output must be one of active, inactive

Incoming: In this assay, the call recorded for `COc1ccccc1-c1cccc(-c2c(O)c3cc(C#N)c(Cl)cc3[nH]c2=O)c1` was what?
Outgoing: inactive

Incoming: In this assay, the call recorded for `O=C(Nc1ccc(OC(F)(F)Cl)cc1)c1cnc(N2CC[C@@H](O)C2)c(-c2ccn[nH]2)c1` was what?
Outgoing: active

Incoming: In this assay, the call recorded for `COc1cc2ncnc(Nc3cccc(Cl)c3F)c2cc1OC(=O)N1CCN(C)C[C@H]1C` was what?
Outgoing: active

Incoming: In this assay, the call recorded for OC1CCC([C@H](O)C[C@H]2c3c(F)cccc3-c3cncn32)CC1 (some centres not stated) was what?
Outgoing: inactive

Incoming: In this assay, the call recorded for `CC(C)=CCC[C@](C)(O[C@@H]1O[C@H](CO[C@@H]2O[C@H](CO)[C@@H](O)[C@H](O)[C@H]2O)[C@@H](O)[C@H](O)[C@H]1O)[C@H]1CC[C@]2(C)[C@@H]1[C@H](O)C[C@@H]1[C@@]3(C)CC[C@H](O[C@@H]4O[C@H](CO)[C@@H](O)[C@H](O)[C@H]4O[C@@H]4O[C@H](CO)[C@@H](O)[C@H](O)[C@H]4O)C(C)(C)[C@@H]3CC[C@]12C` was what?
Outgoing: inactive

Incoming: In this assay, the call recorded for COc1ncc(Nc2ncc(C(C)N3CCN(S(C)(=O)=O)CC3)cc2-c2nc(C)nc(N)n2)cc1F (configuration not stated) was what?
Outgoing: inactive

Incoming: In this assay, the call recorded for CCCCCCCCCCCCCCCCOCCCOP(=O)(O)COC(CO)Cn1ccc(N)nc1=O (configuration not stated) was what?
Outgoing: inactive

###

target: Retinal dehydrogenase 2 (Homo sapiens); test: qHTS for Inhibitors of the Aldehyde Dehydrogenase Family (ALDH1A2) Confirmation screens (AID 2061314); conditions: ALDH1A2 enzyme inhibition qHTS confirmation; series mostly up to 45.9 µM; note: nearly all actives have a fitted effect of over 65% in size
Records with an inconclusive call do not appear. Active and inactive are the calls of the source. The call rests on the fitted dose curve; in most records, active means well fitted inhibition curve with a large enough effect; inconclusive means small, poorly fitted or top-dose-only effect; inactive means no such curve, though single readings can be large or run the other way.
# output must be one of class 1 = active, class 0 = inactive

Incoming: In this assay, the call recorded for `COc1ccc(OC)c(S(=O)(=O)Nc2ccc3[nH]c(=O)[nH]c3c2)c1` was what?
Outgoing: class 0

Incoming: In this assay, the call recorded for `CCOC(=O)C1CCN(C(=O)C(C)(C)NC(=O)Nc2ccc(N(C)C)cc2)CC1` was what?
Outgoing: class 1

Incoming: In this assay, the call recorded for `COc1ccc(S(=O)(=O)N2CCOC[C@H](Oc3ccc(C(F)(F)F)cc3)C2)cc1` was what?
Outgoing: class 0

Incoming: In this assay, the call recorded for `O=C(O)c1cccc(-n2cccc2/C=C2/C(=O)N(Cc3ccc(F)cc3)C(=O)N2Cc2ccc(F)cc2)c1` was what?
Outgoing: class 0

Incoming: In this assay, the call recorded for `O=C1Nc2ccccc2/C1=C\c1ccc([N+](=O)[O-])cc1` was what?
Outgoing: class 1

Incoming: In this assay, the call recorded for Cc1nc(C(C)Nc2ncnc3ccc(-c4ccc5c(c4)OCO5)cc23)cs1 (stereo unspecified) was what?
Outgoing: class 0

Incoming: In this assay, the call recorded for `O=C(NCc1ccccc1)c1csc(N2CCN(c3ccc(Cl)cc3)CC2)n1` was what?
Outgoing: class 0

Incoming: In this assay, the call recorded for `O=C1Nc2ccccc2/C1=C\c1ccc(O)c(Cl)c1` was what?
Outgoing: class 1

Incoming: In this assay, the call recorded for `COC(=O)c1ccccc1NC(=O)CCCS(=O)(=O)c1nc(-c2ccccc2OC)cc(C(F)(F)F)n1` was what?
Outgoing: class 0

Incoming: In this assay, the call recorded for `CCCCOc1cccc(C(=O)Nc2cc(NC(=O)c3ccco3)ccc2OC)c1` was what?
Outgoing: class 0

Incoming: In this assay, the call recorded for `CC(=O)c1c(C)n(-c2cccc(C)c2)c2ccc(OC(=O)COc3ccccc3)cc12` was what?
Outgoing: class 0

Incoming: In this assay, the call recorded for COc1ccc(C2Nc3ccccc3C(=O)N2Cc2ccncc2)cc1COc1ccc(NC(C)=O)cc1 (stereo unspecified) was what?
Outgoing: class 1

Incoming: In this assay, the call recorded for `COc1cncc(Nc2cnc3ccc(-c4ccc(F)cc4)nn23)c1` was what?
Outgoing: class 0

Incoming: In this assay, the call recorded for COc1ccc(CN2CC(O)CN([S+](=O)([O-])c3ccc(F)cc3)CC2=O)cc1 (stereo unspecified) was what?
Outgoing: class 0

Incoming: In this assay, the call recorded for Cc1c(C(=O)OCC2CCCC2)[nH]c2c1C(=O)CC(c1ccco1)C2 (stereo unspecified) was what?
Outgoing: class 1

Incoming: In this assay, the call recorded for `COc1ccc(-c2nc(CCNC(=O)c3c(F)cccc3Cl)cs2)cc1` was what?
Outgoing: class 0

Incoming: In this assay, the call recorded for CNC(=O)c1cc(C2CC2)nc2onc(C3CCCN3C(=O)c3cccc(Cl)c3)c12 (stereo unspecified) was what?
Outgoing: class 0

Incoming: In this assay, the call recorded for `COc1ccc(S(=O)(=O)N2CCCCC2)cc1C(=O)Nc1cccc(C(F)(F)F)c1` was what?
Outgoing: class 0

Incoming: In this assay, the call recorded for `O=C(Nc1ccc(O)cc1)c1cccc(S(=O)(=O)N2CCOCC2)c1` was what?
Outgoing: class 0

Incoming: In this assay, the call recorded for `Cc1sc(NC(=O)Cc2ccc3c(c2)OCO3)nc1-c1ccc2c(c1)CCN2C` was what?
Outgoing: class 1

Incoming: In this assay, the call recorded for `COc1ccccc1Cc1nc2ccccc2nc1SCC(=O)Nc1c(C)cccc1C` was what?
Outgoing: class 0
